The measurements presented in this section are drawn from the supplement of paper PMC10598134.

Kindly supply the reported collision cross section values for the records listed here.
Test: collision cross section of modified peptide (TIMS, N2, iRT-aligned); higher = larger / more extended gas-phase ion
Conditions: charge state: 2; modification: Citrullination (R)
± gives the standard deviation.
Quick note: unit goes after the number.

Worked cases, answers included:
| query.sequence | collision cross section |
| --- | --- |
| GGNFGGRGGYGGGGGGSR [_GGNFGGR(Citrullination (R))GGYGGGGGGSR_] | 392.17 ± 1 Å² |
| RGFGFGGFAISAGK [_R(Citrullination (R))GFGFGGFAISAGK_] | 391.71 ± 0.23 Å² |

collision cross section lookup needed for GRGTSQLAEGATAK [_GR(Citrullination (R))GTSQLAEGATAK_] , thanks.
396.62 ± 1 Å²

====

Test: collision cross section of unmodified peptide (TIMS, N2, iRT-aligned); higher = larger / more extended gas-phase ion
Conditions: charge state: 2
Could you please report measured collision cross section for the items listed next?
Numbers only, in Å².

Here's what some known entries look like.
| query.sequence | uom | collision cross section |
| --- | --- | --- |
| SITHSTVGSKGEK | Å² | 404.31 |
| SLGEPAAGEGSAKR | Å² | 397.19 |
| SLFFGGKGAPLQR | Å² | 408.73 |
| LEEVTGKLQVAR | Å² | 400.35 |
| VGVEAKQPNSAIR | Å² | 404.68 |

Please state collision cross section for every sequence in the list that follows.
1. YSRGAGLGFSTAPNK
2. GRGTGEAEEEYVGPR

[407.91, 410.08]

Items follow; give collision cross section for each.
1. AAHGRGALAEAAR
2. GFLQPPPLRQPR
3. PGLKGEQGEPGAPGIR
4. LQDVSGQLSSSKK
5. DFDTALKHYDK
6. AIEINPDSAQPYK

390.08
397.31
410.66
403.09
391.79
394.83

Answer for every listed entry: what is its collision cross section? The entries follow.
1. GGNFGGRGGYGGGGGGSR
2. LPTTAASTPDAVDK
3. TLTPASSPVSSPSK

1. 404.35
2. 396.7
3. 389.93

====

Assay: collision cross section of modified peptide (TIMS, N2, iRT-aligned); higher = larger / more extended gas-phase ion
Conditions: charge state: 2; modification: Formyl
Please go through the items and note down their collision cross section.
Answers are plain numbers, in Å².

| query.sequence | uom | collision cross section |
| --- | --- | --- |
| DFDTALKHYDK [_DFDTALK(Formyl)HYDK_] | Å² | 397.93 |
| SSGPGGQNVNKVNSK [_SSGPGGQNVNK(Formyl)VNSK_] | Å² | 398.34 |
| LEKTIDDLEEK [_LEK(Formyl)TIDDLEEK_] | Å² | 399.8 |
| LTSLNVKYNNDK [_LTSLNVK(Formyl)YNNDK_] | Å² | 404.27 |

// next item, collision cross section requested
I'd like to know its collision cross section. The sequence in question is SGKFTQQDIDEAK [_SGK(Formyl)FTQQDIDEAK_]
408.45

====

Assay: collision cross section of modified peptide (TIMS, N2, iRT-aligned); higher = larger / more extended gas-phase ion
Conditions: charge state: 2; modification: Methyl (K)
quantity.kind: collision cross section (Å²)
Numbers only, in Å².

Use these answered entries as a reference point.
| query.sequence | measured.value |
| --- | --- |
| DTPTSAGPNSFNKGK [_DTPTSAGPNSFNK(Methyl (K))GK_] | 405.71 |
| TLQKQSVVYGGK [_TLQK(Methyl (K))QSVVYGGK_] | 395.77 |
| LEEVTGKLQVAR [_LEEVTGK(Methyl (K))LQVAR_] | 393.19 |
| DVNAAIAAIKTK [_DVNAAIAAIK(Methyl (K))TK_] | 392.53 |
| LTEKELAEAASK [_LTEK(Methyl (K))ELAEAASK_] | 392.99 |

Consider the sequence shown here: LQEKVESAQSEQK [_LQEK(Methyl (K))VESAQSEQK_] What is its recorded collision cross section?
410.87

====

Assay: collision cross section of modified peptide (TIMS, N2, iRT-aligned); higher = larger / more extended gas-phase ion
Details: charge state: 2; modification: Formyl
± gives the standard deviation.
quantity.kind: collision cross section

Known collision cross section results, listed for orientation:
| query.sequence | quantity.kind | measured.value |
| --- | --- | --- |
| GTVPDDAVEALADSLGKK [_GTVPDDAVEALADSLGK(Formyl)K_] | collision cross section | 449.34 ± 1.3 Å² |
| DTPTSAGPNSFNKGK [_DTPTSAGPNSFNK(Formyl)GK_] | collision cross section | 404 ± 0.2 Å² |
| VDVEVPDVSLEGPEGKLK [_VDVEVPDVSLEGPEGK(Formyl)LK_] | collision cross section | 460.51 ± 1.4 Å² |

Respectfully, I request collision cross section for each entry included below.
1. VFSIISSEKELK [_VFSIISSEK(Formyl)ELK_]
2. VLTANSNPSSPSAAKR [_VLTANSNPSSPSAAK(Formyl)R_]
3. PASGAGAGAGAGKR [_PASGAGAGAGAGK(Formyl)R_]
4. IHVQSSSDSSDEPAEKR [_IHVQSSSDSSDEPAEK(Formyl)R_]
5. GEVQVSDKER [_GEVQVSDK(Formyl)ER_]

402.55 ± 0.42 Å²
421.8 ± 0.8 Å²
349.96 ± 1.4 Å²
447.23 Å²
353.55 ± 2.5 Å²

====

Kindly supply the reported collision cross section values for the records listed here.
Assay: collision cross section of modified peptide (TIMS, N2, iRT-aligned); higher = larger / more extended gas-phase ion
Details: charge state: 2; modification: Succinyl
Give bare numbers, in Å².

Study these solved cases before continuing.
| query.sequence | quantity.kind | measured.value |
| --- | --- | --- |
| ITGKNQVTATK [_ITGK(Succinyl)NQVTATK_] | collision cross section | 364.93 |
| LLEEEDSKLK [_LLEEEDSK(Succinyl)LK_] | collision cross section | 381.87 |
| LLIVSTTPYSEKDTK [_LLIVSTTPYSEK(Succinyl)DTK_] | collision cross section | 458.63 |
| IHVQSSSDSSDEPAEKR [_IHVQSSSDSSDEPAEK(Succinyl)R_] | collision cross section | 452.62 |
| ANLEKAQAELVGTADEATR [_ANLEK(Succinyl)AQAELVGTADEATR_] | collision cross section | 479.08 |
| TLQKQSVVYGGK [_TLQK(Succinyl)QSVVYGGK_] | collision cross section | 397.13 |

# return collision cross section for each item in the list
1. KYEEIDNAPEER [_K(Succinyl)YEEIDNAPEER_]
2. LTEKELAEAASK [_LTEK(Succinyl)ELAEAASK_]
3. TEVLSPNSKVESK [_TEVLSPNSK(Succinyl)VESK_]

1. 412.18
2. 389.23
3. 402.26

For each of the sequences below, state collision cross section.
1. GFCFITYTDEEPVKK [_GFCFITYTDEEPVK(Succinyl)K_]
2. PASGAGAGAGAGKR [_PASGAGAGAGAGK(Succinyl)R_]
3. LGSPSGKTGTCR [_LGSPSGK(Succinyl)TGTCR_]

465.85
354.83
368.12

====

Assay: collision cross section of modified peptide (TIMS, N2, iRT-aligned); higher = larger / more extended gas-phase ion
Conditions: charge state: 2; modification: Biotin
So I've got a bunch of sequences here, and I need their collision cross section values.
Answers are plain numbers, in Å².

Some sequences with recorded collision cross section:
| query.sequence | collision cross section / Å² |
| --- | --- |
| LEKTIDDLEEK [_LEK(Biotin)TIDDLEEK_] | 422.95 |
| LQAAYAGDKADDIQK [_LQAAYAGDK(Biotin)ADDIQK_] | 449.09 |
| ATVASSTQKFQDLGVK [_ATVASSTQK(Biotin)FQDLGVK_] | 460.81 |
| DYSAPVNFISAGLKK [_DYSAPVNFISAGLK(Biotin)K_] | 458.59 |
| SKLLFSNTAAQK [_SK(Biotin)LLFSNTAAQK_] | 417.26 |

Dear reader, for each entry below, please note its collision cross section.
1. VYIASSSGSTAIKK [_VYIASSSGSTAIK(Biotin)K_]
2. GAEKTEVAEPR [_GAEK(Biotin)TEVAEPR_]
3. ANEKTESSSAQQVAVSR [_ANEK(Biotin)TESSSAQQVAVSR_]
4. ASDTSSETVFGKR [_ASDTSSETVFGK(Biotin)R_]
5. LEQVEKELLR [_LEQVEK(Biotin)ELLR_]
6. LEEVTGKLQVAR [_LEEVTGK(Biotin)LQVAR_]
7. VNALKNLQVK [_VNALK(Biotin)NLQVK_]

[429.83, 393.63, 464.95, 406.15, 410.78, 414.01, 393.86]

For each of the sequences below, note its collision cross section.
1. LQEKVESAQSEQK [_LQEK(Biotin)VESAQSEQK_]
2. VTLEVGKVIQQGR [_VTLEVGK(Biotin)VIQQGR_]

1. 433.03
2. 422.26
